The measured values listed here are drawn from ChEMBL document CHEMBL2177010.

protocol-summary: Plasma concentration in nu/nu mouse xenografted with human PC3 cells at 50 mg/kg, po at 9 hrs by LC/MS/MS analysis
Format: ADME, organism-based, PC-3
Set-up: dose 50 mg/kg, route oral
outcome-measure: concentration at 9 h (nM)

compound-string: CC(C)NC[C@@H](C(=O)N1CCN(c2ncnc3c2[C@H](C)C[C@H]3O)CC1)c1ccc(Cl)cc1
outcome-measure: concentration at 9 h
unit-spec: nM
reported-result: 500

====

pIC50: −log10 of the molar value.
The following molecules each carry a recorded pIC50 for RAC-gamma serine/threonine-protein kinase (Homo sapiens, UniProt Q9Y243).
outcome-measure: pIC50

compound-string: CC(C)NC[C@@H](C(=O)N1CCN(c2ncnc3c2[C@H](C)CC3)CC1)c1ccc(Cl)cc1
reported-result: 8.30
--
compound-string: CC(C)NC[C@@H](C(=O)N1CCN(c2ncnc3c2[C@H](C)C[C@H]3O)CC1)c1ccc(Cl)c(F)c1
reported-result: 8.15
--
compound-string: C[C@@H]1C[C@@H](O)c2ncnc(N3CCN(C(=O)[C@H](CNC(C)(C)CO)c4ccc(C(F)(F)F)c(F)c4)CC3)c21
reported-result: 8.70
--
compound-string: CC(C)NC[C@@H](C(=O)N1CCN(c2ncnc3c2[C@H](C)C[C@@H]3F)CC1)c1ccc(Cl)cc1
reported-result: 7.64

====

target-desc: RAC-alpha serine/threonine-protein kinase (Homo sapiens, UniProt P31749)
Sequence (P31749 whole entry): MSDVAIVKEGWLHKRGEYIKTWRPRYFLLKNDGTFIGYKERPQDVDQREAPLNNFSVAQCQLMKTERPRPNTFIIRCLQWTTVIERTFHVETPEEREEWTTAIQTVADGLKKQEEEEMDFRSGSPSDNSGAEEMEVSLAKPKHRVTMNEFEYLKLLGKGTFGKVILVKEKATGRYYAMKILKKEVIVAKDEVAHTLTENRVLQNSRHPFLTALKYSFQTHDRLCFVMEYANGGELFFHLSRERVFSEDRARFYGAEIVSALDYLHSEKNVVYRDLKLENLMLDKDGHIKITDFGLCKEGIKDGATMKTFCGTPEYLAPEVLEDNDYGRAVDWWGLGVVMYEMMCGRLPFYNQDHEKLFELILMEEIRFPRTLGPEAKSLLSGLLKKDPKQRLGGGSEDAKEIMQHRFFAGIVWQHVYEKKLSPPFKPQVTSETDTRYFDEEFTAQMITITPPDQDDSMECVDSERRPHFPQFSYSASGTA
IC50 under 0.6 µM gets True, anything at or over 0.6 µM gets False.

compound-string: CC(C)N(C)C[C@@H](C(=O)N1CCN(c2ncnc3c2[C@H](C)C[C@H]3O)CC1)c1ccc(Cl)cc1
label: True
//
compound-string: C[C@@H]1C[C@@H](O)c2ncnc(N3CCN(C(=O)[C@H](CNC(C)(C)CO)c4ccc(Cl)cc4)CC3)c21
label: True
//
compound-string: CC(C)NC[C@@H](C(=O)N1CCN(c2ncnc3c2[C@H](CO)CC3)CC1)c1ccc(Cl)cc1
label: False
//
compound-string: CO[C@H]1CC[C@H](NC[C@@H](C(=O)N2CCN(c3ncnc4c3[C@H](C)C[C@H]4O)CC2)c2ccc(Cl)cc2)CC1
label: True
//
compound-string: C[C@@H]1C[C@@H](O)c2ncnc(N3CCN(C(=O)[C@H](CN)c4ccc(Cl)cc4)CC3)c21
label: False
//
compound-string: C[C@@H]1C[C@@H](O)c2ncnc(N3CCN(C(=O)[C@@H](c4ccc(Cl)cc4)[C@@H]4COCCN4)CC3)c21
label: False
//
compound-string: C[C@@H]1C[C@@H](O)c2ncnc(N3CCN(C(=O)[C@H](CNC4CCOCC4)c4ccc(Cl)c(F)c4)CC3)c21
label: True

====

protocol-summary: Solubility of the compound at pH 1.2 to 7.4
Type: physicochemical
measurement-parameters: buffer
outcome-measure: solubility

compound: CC(C)NC[C@@H](C(=O)N1CCN(c2ncnc3c2[C@H](C)C[C@H]3O)CC1)c1ccc(Cl)cc1 [IPATASERTIB]
reported-result: > 10000 µg/mL

====

protocol-summary: Plasma concentration in nu/nu mouse xenografted with human PC3 cells at 50 mg/kg, po at 1 hr by LC/MS/MS analysis
Type: ADME, organism-based, PC-3
Parameters: dose 50 mg/kg, route oral

compound-string: CC(C)NC[C@@H](C(=O)N1CCN(c2ncnc3c2[C@H](C)C[C@H]3O)CC1)c1ccc(Cl)cc1
concentration at 1 h / µM: 7.4

====

protocol-summary: Permeability across basolateral to apical side in human Caco2 cells
Type: ADME, cell-based
measurement-parameters: Caco-2, read-out: permeability
outcome-measure: Papp B→A (×10⁻⁶ cm/s)

compound-string: CC(C)NC[C@@H](C(=O)N1CCN(c2ncnc3c2[C@H](C)CC3)CC1)c1ccc(Cl)cc1
outcome-measure: Papp B→A
reported-result: 19.2

====

protocol-summary: Plasma concentration in nu/nu mouse xenografted with human PC3 cells at 12.5 mg/kg, po within 1 hr by LC/MS/MS analysis
Assay type: ADME, organism-based, PC-3
Design: dose 12.5 mg/kg, route oral

compound-string: CC(C)NC[C@@H](C(=O)N1CCN(c2ncnc3c2[C@H](C)C[C@H]3O)CC1)c1ccc(Cl)cc1
concentration at 1 h: ≥ 200 nM

====

The following molecules each carry a recorded log10 IC50 for RAC-gamma serine/threonine-protein kinase (Homo sapiens, UniProt Q9Y243).
outcome-measure: log10 IC50 (log10 of the value in nM)

compound-string: CO[C@H]1CC[C@H](NC[C@@H](C(=O)N2CCN(c3ncnc4c3[C@H](C)C[C@H]4O)CC2)c2ccc(Cl)cc2)CC1
log10 IC50: 0.60
--
compound-string: C[C@@H]1C[C@@H](O)c2ncnc(N3CCN(C(=O)[C@H](CNCC4CC4)c4ccc(C(F)(F)F)c(F)c4)CC3)c21
log10 IC50: 0.30
--
compound-string: C[C@@H]1C[C@@H](O)c2ncnc(N3CCN(C(=O)[C@@H](c4ccc(Cl)cc4)[C@@H]4CCCCN4)CC3)c21
log10 IC50: 1.08
--
compound-string: C[C@@H]1C[C@@H](O)c2ncnc(N3CCN(C(=O)[C@H](CNCCF)c4ccc(Cl)cc4)CC3)c21
log10 IC50: 1.32
--
compound-string: C[C@@H]1C[C@@H](O)c2ncnc(N3CCN(C(=O)[C@H](CNC4CCOCC4)c4ccc(Cl)c(F)c4)CC3)c21
log10 IC50: 1.08
--
compound-string: C[C@@H]1C[C@@H](O)c2ncnc(N3CCN(C(=O)[C@H](CN)c4ccc(Cl)cc4)CC3)c21
log10 IC50: 1.65
--
compound-string: C[C@@H]1C[C@@H](O)c2ncnc(N3CCN(C(=O)[C@@H](c4ccc(Cl)cc4)[C@@H]4COCCN4)CC3)c21
log10 IC50: 1.41
--
compound-string: COCCNC[C@@H](C(=O)N1CCN(c2ncnc3c2[C@H](C)C[C@H]3O)CC1)c1ccc(Cl)cc1
log10 IC50: 1.11
--
compound-string: CC(C)NC[C@@H](C(=O)N1CCN(c2ncnc3c2[C@H](CF)CC3)CC1)c1ccc(Cl)cc1
log10 IC50: 0.70
--
compound-string: C[C@@H]1C[C@@H](O)c2ncnc(N3CCN(C(=O)[C@H](CNCC(F)(F)F)c4ccc(Cl)cc4)CC3)c21
log10 IC50: 2.90

====

pIC50: −log10 of the molar value.
The following molecules each carry a recorded pIC50 for RAC-alpha serine/threonine-protein kinase (Homo sapiens, UniProt P31749).
outcome-measure: pIC50

compound-string: CC(C)NC[C@@H](C(=O)N1CCN(c2ncnc3c2[C@H](C)CC3(F)F)CC1)c1ccc(Cl)cc1
outcome-measure: pIC50
reported-result: 5.93
//
compound-string: C[C@@H]1C[C@@H](O)c2ncnc(N3CCN(C(=O)[C@H](CNC(C)(C)CO)c4ccc(Cl)cc4)CC3)c21
outcome-measure: pIC50
reported-result: 8.70
//
compound-string: COCCNC[C@@H](C(=O)N1CCN(c2ncnc3c2[C@H](C)C[C@H]3O)CC1)c1ccc(Cl)cc1
outcome-measure: pIC50
reported-result: 8.10
//
compound-string: C[C@@H]1C[C@@H](O)c2ncnc(N3CCN(C(=O)[C@@H](c4ccc(Cl)cc4)[C@@H]4CCCN4)CC3)c21
outcome-measure: pIC50
reported-result: 8.52
//
compound-string: C[C@@H]1C[C@@H](O)c2ncnc(N3CCN(C(=O)[C@H](CN4CCC(F)CC4)c4ccc(Cl)cc4)CC3)c21
outcome-measure: pIC50
reported-result: 8.22
//
compound-string: C[C@@H]1C[C@@H](O)c2ncnc(N3CCN(C(=O)[C@H](CNCCF)c4ccc(Cl)cc4)CC3)c21
outcome-measure: pIC50
reported-result: 7.92
//
compound-string: C[C@@H]1C[C@@H](O)c2ncnc(N3CCN(C(=O)[C@@H](c4ccc(Cl)cc4)[C@@H]4COCCN4)CC3)c21
outcome-measure: pIC50
reported-result: 7.92
//
compound-string: C[C@@H]1C[C@@H](O)c2ncnc(N3CCN(C(=O)[C@@H](c4ccc(Cl)cc4)[C@@H]4CCCCN4)CC3)c21
outcome-measure: pIC50
reported-result: 8.05
